- system-under-test: h-P2X4R (Homo sapiens)
- Sequence (Q99571 1-388): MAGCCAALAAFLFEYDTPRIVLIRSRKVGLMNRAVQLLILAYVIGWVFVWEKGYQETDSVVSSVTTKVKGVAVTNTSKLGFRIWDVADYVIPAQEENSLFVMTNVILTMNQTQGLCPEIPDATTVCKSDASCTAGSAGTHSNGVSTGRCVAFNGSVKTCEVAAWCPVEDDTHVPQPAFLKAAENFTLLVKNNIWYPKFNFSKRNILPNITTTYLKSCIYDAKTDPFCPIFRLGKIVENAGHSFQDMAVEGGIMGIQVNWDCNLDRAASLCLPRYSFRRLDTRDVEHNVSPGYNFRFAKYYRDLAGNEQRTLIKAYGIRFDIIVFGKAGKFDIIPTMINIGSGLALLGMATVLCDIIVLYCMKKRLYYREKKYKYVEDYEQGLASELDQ
- experimental-details: Ca2+ influx assay
- Type: cell-based
- condition-parameters: 1321-N1, read-out: h-P2X4 % inhibition
measured-quantity: inhibition at 50 µM (%)

Below, each entry is followed by its recorded inhibition at 50 µM result.
CC(=NNC(=O)c1ccccc1NS(C)(=O)=O)c1cccc(Br)c1 [6c] = 24
CC(=NNC(=O)c1ccccc1NS(C)(=O)=O)c1ccccc1 [6a] = 46
CC(=NNC(=O)c1ccccc1NS(C)(=O)=O)c1ccc(Cl)cc1 [6d] = 18
CC(=NNC(=O)c1ccccc1NS(C)(=O)=O)c1ccc(I)cc1 [6f] = 32
CC(=NNC(=O)c1ccccc1NS(C)(=O)=O)c1cccs1 [7a] = 24
COc1ccc(C(C)=NNC(=O)c2ccccc2NS(C)(=O)=O)cc1 [6g] = 45

(a) CC(=NNC(=O)c1ccccc1NS(C)(=O)=O)c1sccc1C [7b]
(b) CC(=NNC(=O)c1ccccc1NS(C)(=O)=O)c1ccccc1F [6b]
For the two items a and b , which reports the higher inhibition at 50 µM value? Mark your selection by writing its label.
b
(b: 40%, a: 8%)

(a) CC(=NNC(=O)c1ccccc1NS(C)(=O)=O)c1ccc(Br)cc1 [6e]
(b) CC(=NNC(=O)c1ccccc1NS(C)(=O)=O)c1ccc(N)cc1 [6h]
For the two items a and b , which reports the higher inhibition at 50 µM value? Mark your selection by writing its label.
b
